TARGET_DESC: Activated CDC42 kinase 1 (Homo sapiens) (UniProt Q07912);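 note: values are mean inhibition of TNK2, from the GSK PKIS screening dataset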
Sequence (Q07912 whole entry, looked up): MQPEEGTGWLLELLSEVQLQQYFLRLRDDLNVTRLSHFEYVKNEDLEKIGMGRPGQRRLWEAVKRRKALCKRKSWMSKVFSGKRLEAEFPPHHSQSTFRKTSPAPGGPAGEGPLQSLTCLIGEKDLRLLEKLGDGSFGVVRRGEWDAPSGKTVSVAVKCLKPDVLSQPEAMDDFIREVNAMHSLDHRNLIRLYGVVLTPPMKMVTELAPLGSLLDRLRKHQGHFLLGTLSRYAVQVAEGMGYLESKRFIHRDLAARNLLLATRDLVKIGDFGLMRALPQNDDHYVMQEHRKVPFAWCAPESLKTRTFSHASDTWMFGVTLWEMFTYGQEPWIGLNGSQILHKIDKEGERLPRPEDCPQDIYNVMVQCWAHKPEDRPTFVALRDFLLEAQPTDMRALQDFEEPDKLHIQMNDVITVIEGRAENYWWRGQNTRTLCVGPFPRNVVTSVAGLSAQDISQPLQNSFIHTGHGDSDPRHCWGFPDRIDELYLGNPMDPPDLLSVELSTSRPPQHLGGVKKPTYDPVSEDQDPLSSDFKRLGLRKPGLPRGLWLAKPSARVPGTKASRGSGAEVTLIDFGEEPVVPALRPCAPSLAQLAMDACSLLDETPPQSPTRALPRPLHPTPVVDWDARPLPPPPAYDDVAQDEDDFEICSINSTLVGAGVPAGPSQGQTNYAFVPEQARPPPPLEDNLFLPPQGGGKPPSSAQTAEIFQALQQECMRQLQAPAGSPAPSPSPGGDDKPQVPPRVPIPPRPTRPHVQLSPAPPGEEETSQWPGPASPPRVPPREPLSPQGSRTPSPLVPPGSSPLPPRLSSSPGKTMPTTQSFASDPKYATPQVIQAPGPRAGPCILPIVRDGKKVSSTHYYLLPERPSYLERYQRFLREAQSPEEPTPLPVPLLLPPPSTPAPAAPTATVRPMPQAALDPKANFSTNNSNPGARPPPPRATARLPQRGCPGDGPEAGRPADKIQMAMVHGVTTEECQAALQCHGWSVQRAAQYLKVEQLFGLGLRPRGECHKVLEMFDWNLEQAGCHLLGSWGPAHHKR
CONDITION_SET: at 0.1 µM
For each of the molecules below, state its inhibition.
Numbers only, in %.

Record inhibition for all entries; do not skip any.
1. Fc1cccc(COc2ccc(Nc3ncnc4sc(-c5cccs5)cc34)cc2Cl)c1
2. Cc1ccc(NC(=O)c2ccnc(N3CCCC3)c2)cc1-c1ccc(C(=O)NCC2CC2)cc1
3. Cn1cc(C=C2C(=O)Nc3cccnc32)c2ccccc21
4. O=C1Nc2ccc(C(=O)c3ccco3)cc2C1=Cc1cc(Cl)c(O)c(Cl)c1
5. Nc1nc(-c2ccccn2)c(-c2ccc3ncccc3n2)s1

## Output
1: -0.19; 2: 1.07; 3: 0.71; 4: 1.92; 5: 2.33

Record inhibition for all entries; do not skip any.
1. O=C1NC(=O)C(c2ccccc2Cl)=C1Nc1cccc(O)c1
2. CC1=C(C(=O)Nc2ccc3[nH]ncc3c2)C(c2ccc(Cl)c(Cl)c2)CC(=O)N1 (stereo not given)
3. COC(=O)Nc1nc2cc(Oc3ccc(NC(=O)Nc4cccc(C(=O)O)c4)cc3)ccc2[nH]1
4. CCCN1CCC(Oc2cc(Nc3nc(Nc4cccc(F)c4C(N)=O)c4cc[nH]c4n3)c(OC)cc2Cl)CC1

## Output
1: 1.29; 2: 0.3; 3: -0.08; 4: -0.19

The reported inhibition of the molecule COc1cccc(-n2ncc3c(N/N=C/c4cccc(F)c4)ncnc32)c1 was 0.24

====

TARGET_DESC: High affinity nerve growth factor receptor (Homo sapiens);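 note: each value is the mean percent inhibition of TRKA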
CONDITION_SET: at 1 µM
QUANTITY_MEASURED: inhibition

See these solved cases before continuing.
{"columns": ["COMPOUND", "inhibition"],
 "data": [
  ["CCCN1CCC=C(c2ccc(Nc3nc(Nc4ccccc4C(N)=O)c4cc[nH]c4n3)c(C)c2)C1", "6.59%"],
  ["CCn1c(-c2nonc2N)nc2cnc(Oc3cccc(NC(=O)c4ccc(OCCN5CCOCC5)cc4)c3)cc21", "-0.09%"],
  ["COc1cc2c(cc1Nc1nc(N3CCc4ccccc43)c3cc[nH]c3n1)N(C(=O)CN(C)C)CC2", "3.52%"]
]}

Record inhibition for all entries; do not skip any.
1. COc1cc2ncn(-c3cc(OCc4ccccc4C(F)(F)F)c(C(N)=O)s3)c2cc1OC
2. Nc1ncnc2occ(-c3ccc(NC(=O)Nc4cccc(C(F)(F)F)c4)cc3)c12
3. CCCN1CCC(Oc2cc(Nc3nc(Nc4cccc(F)c4C(N)=O)c4cc[nH]c4n3)c(OC)cc2Cl)CC1

## Output
["5.01%", "96.5%", "5.14%"]

Record inhibition for all entries; do not skip any.
1. CC1=C(C(=O)Nc2ccc3[nH]ncc3c2)C(c2ccc(Cl)c(Cl)c2)CC(=O)N1 (centres undefined)
2. CCn1c(-c2nonc2N)nc2c(C#CC(C)(C)O)nc(CN3CCCC3)cc21
3. COc1cc(C)c(NC(=O)CN(C)C)cc1Nc1nc(Nc2cccc(F)c2C(N)=O)c2cc[nH]c2n1

## Output
1. 0.57%
2. -1.66%
3. 13%

====

Tested on: Tyrosine-protein kinase ABL1 (Homo sapiens), P00519 [E255K]
Sequence (P00519 whole entry E255K): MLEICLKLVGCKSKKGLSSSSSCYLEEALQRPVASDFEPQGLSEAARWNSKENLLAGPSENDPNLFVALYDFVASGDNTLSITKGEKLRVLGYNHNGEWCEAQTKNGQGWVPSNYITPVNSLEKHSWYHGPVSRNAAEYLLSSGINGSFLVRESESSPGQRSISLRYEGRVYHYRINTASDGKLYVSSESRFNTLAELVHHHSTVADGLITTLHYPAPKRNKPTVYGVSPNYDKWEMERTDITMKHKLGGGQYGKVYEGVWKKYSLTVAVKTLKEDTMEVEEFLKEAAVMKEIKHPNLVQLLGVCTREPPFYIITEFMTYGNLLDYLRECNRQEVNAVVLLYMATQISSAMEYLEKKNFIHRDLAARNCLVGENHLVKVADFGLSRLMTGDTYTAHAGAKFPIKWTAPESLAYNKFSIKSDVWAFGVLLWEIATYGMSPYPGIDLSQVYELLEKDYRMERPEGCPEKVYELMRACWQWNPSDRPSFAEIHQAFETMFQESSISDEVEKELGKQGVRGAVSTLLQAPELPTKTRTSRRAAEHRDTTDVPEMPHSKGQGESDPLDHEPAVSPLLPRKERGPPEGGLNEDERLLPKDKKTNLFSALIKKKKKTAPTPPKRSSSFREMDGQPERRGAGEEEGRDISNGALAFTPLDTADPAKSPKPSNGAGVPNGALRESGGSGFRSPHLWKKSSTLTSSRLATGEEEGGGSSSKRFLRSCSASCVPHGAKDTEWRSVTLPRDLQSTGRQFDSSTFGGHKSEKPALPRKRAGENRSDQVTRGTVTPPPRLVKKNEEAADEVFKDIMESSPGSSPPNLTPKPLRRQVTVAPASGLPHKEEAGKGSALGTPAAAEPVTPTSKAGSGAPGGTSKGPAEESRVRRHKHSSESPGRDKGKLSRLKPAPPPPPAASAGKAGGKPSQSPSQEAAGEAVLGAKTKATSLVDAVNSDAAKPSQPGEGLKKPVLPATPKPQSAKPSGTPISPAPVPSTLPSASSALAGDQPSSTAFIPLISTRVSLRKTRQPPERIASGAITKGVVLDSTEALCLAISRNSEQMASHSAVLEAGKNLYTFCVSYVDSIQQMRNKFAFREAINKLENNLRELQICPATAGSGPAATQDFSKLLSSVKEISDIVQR
CONDITION_SET: at 0.1 µM
For each of the compounds below, state its inhibition.
Numbers only, in %.

See these solved cases before continuing.
{"columns": ["COMPOUND", "inhibition, %"],
 "data": [
  ["CC1=C(C(=O)Nc2ccc3[nH]ncc3c2)C(c2ccc(Cl)c(Cl)c2)CC(=O)N1 (stereo not given)", 1.47],
  ["COc1cc(C=NNc2ncnc3c2cnn3-c2ccccc2)ccc1O", 24.9],
  ["Cc1ccc(C(=O)NC2CCCCC2)cc1-c1ccc(C(=O)NCC2CC2)cc1", 0.94],
  ["CCn1c(-c2nonc2N)nc2cncc(C(=O)N3CC[C@H](N)C3)c21", 3.58],
  ["CS(=O)(=O)CCNCc1ccc(-c2ccc3ncnc(Nc4ccc(OCc5ccccc5)c(Cl)c4)c3c2)o1", 1.33]
]}

Record inhibition for all entries; do not skip any.
1. CS(=O)(=O)CCNCc1ccc(-c2ccc3ncnc(Nc4ccc(OCc5cccc(F)c5)c(C(F)(F)F)c4)c3c2)o1
2. CN(C)c1cc2c(Nc3ccc4nc(Cc5ccccc5)[nH]c4c3)ncnc2cn1
3. O=C1NC(=O)C(c2ccccc2Cl)=C1Nc1cccc(O)c1

## Output
[4.46, 3, 1.22]

Record inhibition for all entries; do not skip any.
1. CS(=O)(=O)Nc1ccc(N/C=C2\C(=O)Nc3ccccc32)cc1
2. COC(=O)Nc1nc2cc(Oc3ccc(NC(=O)Nc4cccc(C(=O)O)c4)cc3)ccc2[nH]1

## Output
-0.28
-4.91

====

TARGET_DESC: Dual specificity protein kinase CLK2 (Homo sapiens) (UniProt P49760)
Sequence (P49760 whole entry, looked up): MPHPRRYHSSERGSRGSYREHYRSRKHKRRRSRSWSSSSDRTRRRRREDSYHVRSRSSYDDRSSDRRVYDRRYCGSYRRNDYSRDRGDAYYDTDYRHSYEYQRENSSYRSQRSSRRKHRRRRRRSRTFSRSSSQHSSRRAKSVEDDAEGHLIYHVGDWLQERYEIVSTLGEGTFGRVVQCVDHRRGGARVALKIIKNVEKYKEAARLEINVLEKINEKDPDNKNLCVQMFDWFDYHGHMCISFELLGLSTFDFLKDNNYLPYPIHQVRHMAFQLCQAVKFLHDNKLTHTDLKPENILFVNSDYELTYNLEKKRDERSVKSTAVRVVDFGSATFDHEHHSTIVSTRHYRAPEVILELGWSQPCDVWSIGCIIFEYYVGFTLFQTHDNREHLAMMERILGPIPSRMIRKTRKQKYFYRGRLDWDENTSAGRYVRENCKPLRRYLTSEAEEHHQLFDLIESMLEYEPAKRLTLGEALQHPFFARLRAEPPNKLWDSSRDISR
CONDITION_SET: at 0.1 µM
Description: GSK_PKIS: CLK2 mean inhibition at 0.1 uM [Nanosyn]
QUANTITY_MEASURED: inhibition (%)
Answers are plain numbers, in %.

{"columns": ["MOLECULE", "TARGET_DESC", "OBS_VALUE"],
 "data": [
  ["CC1=C(C(=O)Nc2ccc3[nH]ncc3c2)C(c2ccc3ccccc3c2)CC(=O)N1 (configuration not stated)", "Dual specificity protein kinase CLK2 (Homo sapiens) (UniProt P49760)", 1.34]
]}

Record inhibition for all entries; do not skip any.
1. CCn1c(-c2nonc2N)nc2cncc(C(=O)N3CC[C@H](N)C3)c21
2. CCCN1CCC=C(c2ccc(Nc3nc(Nc4ccccc4C(N)=O)c4cc[nH]c4n3)c(C)c2)C1
3. O=C(Nc1n[nH]c2nc(-c3ccco3)c(Br)cc12)C1CC1
4. CC(C)=Cc1cccc2c1/C(=N/Nc1ccc(S(N)(=O)=O)cc1)C(=O)N2
5. COc1cc(C)c(NC(=O)CN(C)C)cc1Nc1nc(Nc2cccc(F)c2C(N)=O)c2cc[nH]c2n1

## Output
[5.07, 38.2, 1.95, 1.69, 45.4]

Record inhibition for all entries; do not skip any.
1. COC(=O)Nc1nc2cc(Oc3ccc(NC(=O)Nc4cccc(C(=O)O)c4)cc3)ccc2[nH]1
2. Nc1nc(-c2ccccn2)c(-c2ccc3ncccc3n2)s1
3. CCn1c(-c2nonc2N)nc2cnc(Oc3cccc(NC(=O)c4ccc(OCCN5CCOCC5)cc4)c3)cc21
4. CS(=O)(=O)Nc1ccc(N/C=C2\C(=O)Nc3ccccc32)cc1

## Output
[2.17, -0.01, -0.98, -0.68]

====

TARGET_DESC: Mitogen-activated protein kinase 11 (Homo sapiens) (UniProt Q15759);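 note: reported values are averaged (mean) percent inhibition of p38beta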
Sequence (Q15759 whole entry): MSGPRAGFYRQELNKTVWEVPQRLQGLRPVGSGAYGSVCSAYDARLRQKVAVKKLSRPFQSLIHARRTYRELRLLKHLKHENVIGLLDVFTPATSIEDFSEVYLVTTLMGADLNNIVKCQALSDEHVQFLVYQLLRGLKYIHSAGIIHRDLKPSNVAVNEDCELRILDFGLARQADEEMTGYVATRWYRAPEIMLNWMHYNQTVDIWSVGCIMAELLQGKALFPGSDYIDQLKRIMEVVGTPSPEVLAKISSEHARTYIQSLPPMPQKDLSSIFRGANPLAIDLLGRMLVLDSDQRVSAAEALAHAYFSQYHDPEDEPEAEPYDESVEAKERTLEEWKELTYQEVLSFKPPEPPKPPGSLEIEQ
CONDITION_SET: at 0.1 µM
For each of the molecules below, state its inhibition.
One number for each entry, in %.

See these solved cases before continuing.
{"columns": ["MOLECULE", "UNIT_TAG", "inhibition"],
 "data": [
  ["COc1ccccc1Nc1ncc(-c2ccccc2)o1", "%", 4.31],
  ["NC(=O)c1cccc(Nc2nccc(Nc3cccc4[nH]ncc34)n2)c1", "%", -1.99],
  ["Cc1cccc(-c2n[nH]cc2-c2ccc3ncccc3n2)n1", "%", -0.93]
]}

Record inhibition for all entries; do not skip any.
1. NS(=O)(=O)c1ccc(N/N=C2\C(=O)Nc3ccc(C(=O)NCCc4c[nH]cn4)cc32)cc1
2. O=C1NC(=O)C(c2cccc(Cl)c2)=C1Nc1ccc(O)c(Cl)c1

## Output
1: 3.37; 2: 1.96

====

For each of the molecules below, state its inhibition.
TARGET_DESC: cGMP-dependent protein kinase 2 (Homo sapiens) (UniProt Q13237);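 note: mean inhibition of PRKG2 from the GSK PKIS screen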
Sequence (whole entry): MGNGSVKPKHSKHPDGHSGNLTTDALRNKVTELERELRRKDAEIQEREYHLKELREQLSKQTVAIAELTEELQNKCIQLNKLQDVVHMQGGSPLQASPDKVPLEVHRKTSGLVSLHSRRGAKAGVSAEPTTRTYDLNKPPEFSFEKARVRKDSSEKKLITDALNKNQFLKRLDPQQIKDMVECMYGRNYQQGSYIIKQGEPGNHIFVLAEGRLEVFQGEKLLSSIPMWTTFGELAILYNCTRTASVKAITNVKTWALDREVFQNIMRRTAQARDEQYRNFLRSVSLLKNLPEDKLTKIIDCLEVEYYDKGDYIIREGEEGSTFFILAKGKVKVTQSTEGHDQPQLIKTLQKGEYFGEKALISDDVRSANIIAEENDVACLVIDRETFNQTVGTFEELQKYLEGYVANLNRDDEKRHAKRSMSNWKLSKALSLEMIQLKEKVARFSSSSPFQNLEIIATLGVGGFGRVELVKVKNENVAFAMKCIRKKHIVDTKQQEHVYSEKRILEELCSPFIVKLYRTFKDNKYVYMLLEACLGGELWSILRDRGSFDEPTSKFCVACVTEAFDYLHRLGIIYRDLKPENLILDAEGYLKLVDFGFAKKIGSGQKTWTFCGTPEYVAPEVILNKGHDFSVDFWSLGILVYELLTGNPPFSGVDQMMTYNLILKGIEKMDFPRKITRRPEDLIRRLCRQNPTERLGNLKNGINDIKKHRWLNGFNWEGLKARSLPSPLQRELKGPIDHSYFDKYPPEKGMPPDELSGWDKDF
CONDITION_SET: at 1 µM
Please answer using a numeric value trailed by its unit.

See these solved cases before continuing.
{"columns": ["MOLECULE", "inhibition"],
 "data": [
  ["CS(=O)(=O)CCNCc1nc(-c2ccc3ncnc(Nc4ccc(F)c(Cl)c4)c3c2)cs1", "2.67%"],
  ["Cc1nnc(-c2ccc(C)c(-c3ccc(C(=O)Nc4cccc(C#N)c4)cc3)c2)o1", "3.35%"]
]}

Turning now to a further molecule:
The reported inhibition of the molecule CCn1c(-c2nonc2N)nc2ccncc21 was 8.39%
